biological target: recombinant human Myt1 (full length PKMYT1) (Homo sapiens (Human)); assay: Recombinant human Myt1 kinase assay (ADP-Glo); details: 10 μM ATP
Sequence (Q99640 whole entry): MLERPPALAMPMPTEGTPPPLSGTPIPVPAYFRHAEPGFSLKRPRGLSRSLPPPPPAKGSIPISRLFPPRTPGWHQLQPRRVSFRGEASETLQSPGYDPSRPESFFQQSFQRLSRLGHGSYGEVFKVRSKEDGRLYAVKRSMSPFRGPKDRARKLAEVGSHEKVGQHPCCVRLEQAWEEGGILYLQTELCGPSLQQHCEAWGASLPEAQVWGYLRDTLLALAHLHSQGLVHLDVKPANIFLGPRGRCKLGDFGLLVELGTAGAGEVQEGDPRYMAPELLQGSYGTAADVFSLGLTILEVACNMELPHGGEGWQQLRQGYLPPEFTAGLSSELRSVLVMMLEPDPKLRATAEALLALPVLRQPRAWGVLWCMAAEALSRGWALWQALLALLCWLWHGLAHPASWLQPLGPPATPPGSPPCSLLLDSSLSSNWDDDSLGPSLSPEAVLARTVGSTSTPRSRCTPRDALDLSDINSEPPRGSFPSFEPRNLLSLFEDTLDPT
Here, each record is paired with measured pIC50 data.
// pIC50: -log10(molar conc.)

Solved entries (count: 2):
>>> quantitative_result("Cc1ccc2[nH]ncc2c1-c1cc(-c2cccc(OCc3ccn(C)n3)n2)nc(C(N)=O)c1N")
7.15
>>> quantitative_result("COC(C)COc1nccc(-c2cc(-c3c(C)ccc4[nH]ncc34)c(N)c(C(N)=O)n2)n1 (stereo not shown)")
8.15

Reported pIC50, compound Cc1ccc2[nH]ncc2c1-c1nc(-c2ccccc2NC(=O)C2(C)COC2)nc(C(N)=O)c1N : ____
8.15

Reported pIC50, compound Cc1ccc2[nH]ncc2c1-c1nc(-c2ccccc2NC(=O)C2CCOCC2)nc(C(N)=O)c1N : ____
8.40

Reported pIC50, compound Cc1ccc2[nH]ncc2c1-c1cc(-c2ccccn2)nc(C(N)=O)c1N [Compound 96] : ____
6.41

Reported pIC50, compound Cc1ccc2[nH]ncc2c1-c1cc(-c2cccc(OCc3ncco3)n2)nc(C(N)=O)c1N [Compound 267] : ____
8.40

Reported pIC50, compound COCCOc1cccc(-c2cc(-c3c(C)ccc4[nH]ncc34)c(N)c(C(N)=O)n2)n1 [Compound 245] : ____
8.00

Reference for the values: patent US20250304537A1
